// data source = ChEMBL document CHEMBL3621124

pIC50 for assorted compounds
Tested on: HCT-116
Experiment: Cytotoxicity against human HCT116 cells assessed as growth inhibition incubated for 72 hrs by MTT assay
Format: functional, cell-based
Conditions: HCT-116, 72 h
pIC50: −log10 of the molar value.
ASSAY_METRIC: pIC50

1. C=C1C(=O)O[C@H]2C[C@]3(C)C(=O)C=C(CC)[C@@H](C3=O)[C@@H]12: 5.00
2. C=C1C(=O)O[C@H]2C[C@@]3(C)C(=O)[C@@H]([C@@H]12)[C@](O)(CC)C[C@@H]3OCOC: 4.84
3. C=C(C)CC[C@H](O)[C@@]1(C)C[C@@H]2OC(=O)C(=C)[C@@H]2CC1=O: 4.72
4. C=C1C(=O)O[C@H]2C[C@]3(C)C(=O)C=C(CC)OC3=C[C@@H]12: 5.03
5. C=C1C(=O)O[C@H]2C[C@](C)(/C=C/C(=O)CC)C(=O)C[C@@H]12: 5.24
6. C=C1C(=O)O[C@H]2C[C@](C)(C(=O)CC(=O)CC)C(=O)C[C@@H]12: 4.68
7. C=C(C)CC[C@H](OC(C)=O)[C@@]1(C)C[C@@H]2OC(=O)C(=C)[C@@H]2CC1=O: 5.07
8. COc1cccc2c1C(=O)c1c(O)c3c(c(O)c1C2=O)C[C@@](O)(C(=O)CO)C[C@@H]3O[C@H]1C[C@H](N)[C@H](O)[C@H](C)O1: 6.74
9. C=C1C(=O)O[C@H]2C[C@@H](C)C(=O)C[C@@H]12: 4.74
